# target: CB1 receptor (Homo sapiens)
# Construct: expressed in transfected cells
# protocol details: Binding assay for CB1 agonists or inverse agonists (SK-N-MC membranes, [3H]-CP-55,940)
# reported conditions: Cannabinoid CB1 Receptor Binding IC50, calculated by linear regression from percent inhibition at various test concentrations
API: label(entry) gives t if the entry's IC50 is strictly smaller than 0.06 µM; on equality or larger values it gives f.

Recorded results for 3 molecules are shown here.
INSERT INTO assay_data (molecule, target, class_assignment) VALUES
  ('CC12CCC(C1)C(C)(C)[C@H]2NC(=O)c1nn(Cc2ccccc2)c2c1CCCCC2c1ccccc1 (stereo partly shown) [Cpd 47]', 'CB1 receptor (Homo sapiens)', 'f'),
  ('COc1ccc(/C=C2\CCCCc3c(C(=O)NC(C)(C)c4ccccc4)nn(-c4ccc(Cl)cc4Cl)c32)cc1 [Cpd 211]', 'CB1 receptor (Homo sapiens)', 't'),
  ('COc1ccc(/C=C2\CCCCc3c(C(=O)N[C@@H]4CCc5ccccc54)nn(-c4ccc(Cl)cc4Cl)c32)cc1 [Cpd 216]', 'CB1 receptor (Homo sapiens)', 't');

Consider COC(=O)[C@@H](Cc1ccc(O)cc1)NC(=O)c1nn(C2CCCCC2)c2c1CCCCC2Cc1ccc(F)cc1 (stereo partly shown) [Cpd 83] . Does its IC50 lie strictly below 0.06 µM? f

Report whether reported IC50 is lower than 0.06 µM (strictly) for C[C@H](NS(=O)(=O)/C=C/c1n[nH]c2c1CCCC/C2=C\c1ccc(Cl)cc1)c1ccccc1 [Cpd 237] f

Identify whether the molecule COC(=O)[C@@H](Cc1ccc(F)cc1)NC(=O)c1nn(C)c2c1CCCC/C2=C\c1cccc(F)c1 [Cpd 248] records IC50 below 0.06 µM. t

----------
# target: CB2 receptor (Homo sapiens, UniProt P34972)
# Construct: expressed in transfected cells
# Sequence (P34972 whole entry): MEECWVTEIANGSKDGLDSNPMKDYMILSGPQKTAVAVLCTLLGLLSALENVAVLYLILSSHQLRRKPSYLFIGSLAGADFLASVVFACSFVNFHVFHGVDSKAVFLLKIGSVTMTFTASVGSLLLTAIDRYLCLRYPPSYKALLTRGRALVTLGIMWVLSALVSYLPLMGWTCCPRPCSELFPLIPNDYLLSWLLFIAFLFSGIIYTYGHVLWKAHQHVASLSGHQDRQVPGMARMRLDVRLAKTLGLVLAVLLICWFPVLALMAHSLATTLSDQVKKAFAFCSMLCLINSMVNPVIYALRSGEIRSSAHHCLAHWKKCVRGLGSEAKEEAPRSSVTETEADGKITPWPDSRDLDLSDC
# protocol details: Binding assay for CB2 agonists or inverse agonists (SK-N-MC membranes, [3H]-CP-55,940)
# reported conditions: test concentration 0.2 μM (footnote 2); read-out: CB2 receptor binding percent inhibition
# Experimental: The human CB1 and CB2 receptors were stably expressed in SK-N-MC cells transfected with pcDNA3 CB-1 (human) or pcDNA3 CB-2 (human). […] On the day of the assay, the pellet was thawed on ice and diluted in assay buffer (50 mM Tris-HCl, 5 mM MgCl2, 2.5 mM EDTA, 0.5 mg/mL fatty acid free bovine serum aldumin, pH 7.5). […] The Unifilter plate was dried, a scintillation cocktail was added to each well and the counts representing binding were quantitated in a TopCount scintillation counter. […]
Tag: label 1 if measured inhibition at 0.2 µM is not below 40%, label 0 if it is.

Use the examples below as a reference point.
INSERT INTO assay_data (compound, class_assignment) VALUES
  ('O=C(N[C@H](CCl)c1ccccc1)c1nn(-c2nccc(C(F)(F)F)n2)c2c1CCCCC2Cc1cccc(Cl)c1 (stereo partly shown)', 'label 0'),
  ('C[C@H](NS(=O)(=O)/C=C/c1n[nH]c2c1CCCC/C2=C\c1ccc(Cl)cc1)c1ccccc1', 'label 1'),
  ('C[C@@H](NC(=O)c1nn(-c2ccc(F)cc2F)c2c1CCCCC2Cc1cccc(F)c1)c1ccccc1 (stereo partly shown)', 'label 0'),
  ('O=C(N[C@H](CO)c1ccccc1)c1nn(-c2ccc(Cl)cc2Cl)c2c1CCCC[C@@H]2Cc1cccc(Cl)c1', 'label 0'),
  ('C[C@@H](NC(=O)c1nn(-c2nccc(C(F)(F)F)n2)c2c1CCCCC2Cc1cccc(Cl)c1)c1ccccc1 (stereo partly shown)', 'label 0');

Determine whether this compound has inhibition at 0.2 µM no lower than 40%: O=C(N[C@@H](CO)Cc1ccccc1)c1nn(-c2nccc(C(F)(F)F)n2)c2c1CCCCC2Cc1cccc(Cl)c1 (stereo partly shown) label 1

----------
Give measured EC50 for each item. Keep answers brief.
# target: CB1 receptor (Homo sapiens)
# Construct: expressed in transfected cells
# protocol details: cell-based
# reported conditions: CB1 Receptor Functional Inverse Agonist EC50, forskolin induced β-galactosidase activity, SK-N-MC cells
Numbers only, in nM.

Some compounds with known EC50 results, for comparison:
INSERT INTO measurements (compound, quantity_measured, unit_string, measured_value) VALUES
  ('O=C(NN1CCOCC1)c1nn(-c2ccc(Cl)cc2Cl)c2c1CCCC/C2=C\c1ccc(F)cc1 [Cpd 151]', 'EC50', 'nM', 60),
  ('COc1ccc(/C=C2\CCCCc3c(C(=O)NC(C)c4ccccn4)nn(-c4ccc(Cl)cc4Cl)c32)cc1 (stereo not shown) [Cpd 222]', 'EC50', 'nM', 30),
  ('O=C(N[C@@H]1CCc2ccccc21)c1nn(-c2ccc(Cl)cc2Cl)c2c1CCCC/C2=C\c1ccc(F)cc1 [Cpd 207]', 'EC50', 'nM', 7);

Provide measured EC50 value, entry: O=C(NN1CCOCC1)c1nn(-c2ccc(Cl)cc2Cl)c2c1CCCCC2Cc1cccc(F)c1 (stereo not shown) [Cpd 91] 70

----------
# target: CB2 receptor (Homo sapiens, UniProt P34972)
# Construct: expressed in transfected cells
# protocol details: Binding assay for CB2 agonists or inverse agonists (SK-N-MC membranes, [3H]-CP-55,940)
# reported conditions: test concentration not stated
quantity measured: CB2 receptor binding percent inhibition (%)
Answers are plain numbers, in %.

INSERT INTO results (compound, measured_value) VALUES
  ('COC(=O)[C@@H](Cc1ccc(F)cc1)NC(=O)c1nn(-c2ccc(Cl)cc2Cl)c2c1CCCC[C@H]2Cc1cccc(F)c1 [Cpd 78]', 23),
  ('CCOC(=O)[C@H]1C2C=CC(C2)[C@H]1NC(=O)c1nn(-c2ccc(Cl)cc2Cl)c2c1CCCCC2Cc1cccc(F)c1 (some centres unmarked) [Cpd 79]', 29),
  ('C[C@@H](NC(=O)c1nn(C2CCCCC2)c2c1CCCCC2Cc1ccc(Cl)cc1)c1ccccc1 (some centres unmarked) [Cpd 6]', 4);

// input: 5 compounds below; output: CB2 receptor binding percent inhibition for each
1. O=C(NC1CC1)c1nn(-c2ccc(Cl)cc2Cl)c2c1CCCCC2Cc1ccc(Cl)cc1 (centres unmarked) [Cpd 38]
2. CCOC(=O)[C@@H]1C2CCC(C2)[C@@H]1NC(=O)c1nn(-c2ccc(F)cc2F)c2c1CCCCC2Cc1ccc(F)cc1 (some centres unmarked) [Cpd 110]
3. Cn1nc(/C=C/S(=O)(=O)NN2CCOCC2)c2c1C(Cc1ccc(F)cc1)CCCC2 (centres unmarked) [Cpd 126]
4. O=C(NC12CC3CC(CC1C3)C2)c1nn(C2CCCCC2)c2c1CCCCC2Cc1cccc(Cl)c1 (centres unmarked) [Cpd 9]
5. C[C@H](NS(=O)(=O)/C=C/c1n[nH]c2c1CCCCC2Cc1cccc(F)c1)c1ccccc1 (some centres unmarked) [Cpd 96]

0
59
65
4
72

----------
Give EC50 for every item shown.
# target: CB1 receptor (Homo sapiens)
# Construct: expressed in transfected cells
# protocol details: cell-based
# reported conditions: CB1 Receptor Functional Inverse Agonist EC50, forskolin induced β-galactosidase activity, SK-N-MC cells
Answers are plain numbers, in µM.

# count of solved cases: 3
INSERT INTO results (compound, measured_value) VALUES
  ('O=C(NN1CCCCC1)c1nn(-c2ccc(Cl)cc2Cl)c2c1CCCC/C2=C\c1ccc(F)cc1', 0.02),
  ('O=C(NCc1ccncc1)c1nn(-c2ccc(Cl)cc2Cl)c2c1CCCC/C2=C\c1ccc(Cl)cc1', 0.09),
  ('O=C(N[C@@H]1c2ccccc2C[C@@H]1O)c1nn(C2CCCCC2)c2c1CCCCC2Cc1cccc(F)c1 (single isomer, unassigned)', 0.04);

Please supply EC50 for each of the following items, keeping them in order.
1. O=S(=O)(/C=C/c1nn(-c2ccc(F)cc2F)c2c1CCCCC2Cc1cccc(F)c1)NN1CCCCC1 (stereo not shown)
2. COc1ccc(/C=C2\CCCCc3c(C(=O)N[C@H](C)C4CCCCC4)nn(-c4ccc(Cl)cc4Cl)c32)cc1

2.9
0.03

Please give EC50, item by item, for the list that follows.
1. COc1ccc(/C=C2\CCCCc3c(C(=O)N[C@H](C)c4ccccc4)nn(-c4ccc(Cl)cc4Cl)c32)cc1
2. O=C(c1nn(-c2ccc(Cl)cc2Cl)c2c1CCCC/C2=C\c1ccc(F)cc1)N1CCCCC1c1ccccn1 (stereo not shown)

0.02
0.01

----------
# target: CB1 receptor (Homo sapiens, UniProt P21554)
# Construct: expressed in transfected cells
# Sequence (P21554 whole entry): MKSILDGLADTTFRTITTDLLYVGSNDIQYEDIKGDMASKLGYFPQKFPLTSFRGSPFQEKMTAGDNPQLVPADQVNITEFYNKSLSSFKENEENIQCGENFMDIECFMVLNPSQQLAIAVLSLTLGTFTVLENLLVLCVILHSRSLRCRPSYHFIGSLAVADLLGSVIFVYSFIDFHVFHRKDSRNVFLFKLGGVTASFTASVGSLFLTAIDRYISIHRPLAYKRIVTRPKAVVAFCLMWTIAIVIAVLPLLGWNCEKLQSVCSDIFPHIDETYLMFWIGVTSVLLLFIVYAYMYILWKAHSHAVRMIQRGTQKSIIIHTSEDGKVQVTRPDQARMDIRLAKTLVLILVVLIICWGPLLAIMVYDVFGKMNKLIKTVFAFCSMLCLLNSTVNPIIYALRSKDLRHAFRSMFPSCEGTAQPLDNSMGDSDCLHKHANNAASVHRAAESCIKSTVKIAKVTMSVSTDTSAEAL
# protocol details: Binding assay for CB1 agonists or inverse agonists (SK-N-MC membranes, [3H]-CP-55,940)
# reported conditions: read-out: CB1 receptor binding percent inhibition, test concentration 1 μM (footnote 1)
quantity measured: inhibition at 1 µM

Solved cases (3 shown):
INSERT INTO measurements (compound, quantity_measured, measured_value) VALUES
  ('C[C@H](NS(=O)(=O)/C=C/c1n[nH]c2c1CCCCC2Cc1ccc(F)cc1)c1ccccc1 (stereo partly shown)', 'inhibition at 1 µM', '55%'),
  ('Cn1nc(/C=C/S(=O)(=O)NN2CCCCC2)c2c1C(Cc1cccc(F)c1)CCCC2 (stereo not shown)', 'inhibition at 1 µM', '14%'),
  ('O=C(NC1CCC1)c1nn(-c2ccc(Cl)cc2Cl)c2c1CCCCC2Cc1ccc(Cl)cc1 (stereo not shown)', 'inhibition at 1 µM', '71%');

Pending compound:
// Input: O=C(NC1CCC1)c1nn(-c2ccc(Cl)cc2Cl)c2c1CCCCC2Cc1cccc(F)c1 (stereo not shown) . Output its inhibition at 1 µM only. 68%

Origin of measurements: patent US8378117B2
